Ref: patent US20250196025A1

testedTarget: IgG (Gammanorm)
protocolSummary: SPR (Biacore), variant amine-coupled to CM5 chip, Gammanorm as analyte, 1:1 kinetic fit
reportedMetric: Kd
Provide the measurement as a number trailed by its unit.

Could you please provide reported Kd for Protein L variant pAM253 (domain B4-2; H10, H45, Y60) (protein) PKEEVTIKAHLIYADGKTQTAEFKGTFAEATAEAYRYADLLAKEHGKYTADLEDGGYTIYIRFAGKKVDEKPEE ? Thanks! 14 nM

Could you please provide reported Kd for Protein L variant pAM237 (domain B2-1; H10, H45, Q60) (protein) PKEEVTIKAHLIYADGKTQTAEFKGTFEEAAAEAYRYADALKKDHGEYTVDVADKGYTLQIKFAGKEKTPEE ? Thanks! 27 nM

Could you please provide reported Kd for Protein L variant pAM248 (domain D1-1; H10, H45, Q60) (protein) PKEEVTIKAHLIFADGKTQTAEFKGTFEEATAEAYRYADLLAKVHGEYTADLEDGGYTIQIKFAGKEQPGEN ? Thanks! 16 nM

Could you please provide reported Kd for Protein L variant pAM243 (domain C2-1; H10, H45, Q60) (protein) PKEEVTIKVHLIFADGKTQTAEFKGTFEEATAKAYAYADLLAKEHGEYTADLEDGGNTIQIKFAGKETPETPEE ? Thanks! 39 nM

Could you please provide reported Kd for Protein L variant pAM251 (domain B2-2; H10, H45, Y60) (protein) PKEEVTIKAHLIYADGKTQTAEFKGTFEEAAAEAYRYADALKKDHGEYTVDVADKGYTLYIKFAGKEKTPEE ? Thanks! 20 nM
